molecular target: ABCB1 (Homo sapiens); experiment: Cell and fluorescent imaging-based ABCB1-mediated efflux assay (IncuCyte FLR) in KB-V1 cells; details: human, ABCB1-overexpressing KB-V1 cells, probe calcein AM (1 µM)

compound	inhibition at 10 µM
CN1CCN(CCOc2cc(OC3CCOCC3)c3c(Nc4c(Cl)ccc5c4OCO5)ncnc3c2)CC1 [AZD0530 (Saracatinib), Saracatinib]	≥ 50%
CO[C@H]1C[C@@H]2CC[C@@H](C)[C@@](O)(O2)C(=O)C(=O)N2CCCC[C@H]2C(=O)O[C@H]([C@H](C)C[C@@H]2CC[C@@H](OCCO)[C@H](OC)C2)CC(=O)[C@H](C)/C=C(\C)[C@@H](O)[C@@H](OC)C(=O)[C@H](C)C[C@H](C)/C=C/C=C/C=C/1C [Everolimus (RAD001), Everolimus]	≥ 50%

---

target: ABCB1 (Homo sapiens, UniProt P08183); test: Cell and fluorescent imaging-based ABCB1-mediated efflux assay (IncuCyte FLR) in KB-V1 cells;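 note: ABCB1-overexpressing KB-V1 cells, live-cell fluorescence imaging of retained calcein (from calcein AM) or MitoTracker Green FM, no preincubation with inhibitor, XR9576 as positive control, calcein AM alone as background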
Sequence (P08183 whole entry): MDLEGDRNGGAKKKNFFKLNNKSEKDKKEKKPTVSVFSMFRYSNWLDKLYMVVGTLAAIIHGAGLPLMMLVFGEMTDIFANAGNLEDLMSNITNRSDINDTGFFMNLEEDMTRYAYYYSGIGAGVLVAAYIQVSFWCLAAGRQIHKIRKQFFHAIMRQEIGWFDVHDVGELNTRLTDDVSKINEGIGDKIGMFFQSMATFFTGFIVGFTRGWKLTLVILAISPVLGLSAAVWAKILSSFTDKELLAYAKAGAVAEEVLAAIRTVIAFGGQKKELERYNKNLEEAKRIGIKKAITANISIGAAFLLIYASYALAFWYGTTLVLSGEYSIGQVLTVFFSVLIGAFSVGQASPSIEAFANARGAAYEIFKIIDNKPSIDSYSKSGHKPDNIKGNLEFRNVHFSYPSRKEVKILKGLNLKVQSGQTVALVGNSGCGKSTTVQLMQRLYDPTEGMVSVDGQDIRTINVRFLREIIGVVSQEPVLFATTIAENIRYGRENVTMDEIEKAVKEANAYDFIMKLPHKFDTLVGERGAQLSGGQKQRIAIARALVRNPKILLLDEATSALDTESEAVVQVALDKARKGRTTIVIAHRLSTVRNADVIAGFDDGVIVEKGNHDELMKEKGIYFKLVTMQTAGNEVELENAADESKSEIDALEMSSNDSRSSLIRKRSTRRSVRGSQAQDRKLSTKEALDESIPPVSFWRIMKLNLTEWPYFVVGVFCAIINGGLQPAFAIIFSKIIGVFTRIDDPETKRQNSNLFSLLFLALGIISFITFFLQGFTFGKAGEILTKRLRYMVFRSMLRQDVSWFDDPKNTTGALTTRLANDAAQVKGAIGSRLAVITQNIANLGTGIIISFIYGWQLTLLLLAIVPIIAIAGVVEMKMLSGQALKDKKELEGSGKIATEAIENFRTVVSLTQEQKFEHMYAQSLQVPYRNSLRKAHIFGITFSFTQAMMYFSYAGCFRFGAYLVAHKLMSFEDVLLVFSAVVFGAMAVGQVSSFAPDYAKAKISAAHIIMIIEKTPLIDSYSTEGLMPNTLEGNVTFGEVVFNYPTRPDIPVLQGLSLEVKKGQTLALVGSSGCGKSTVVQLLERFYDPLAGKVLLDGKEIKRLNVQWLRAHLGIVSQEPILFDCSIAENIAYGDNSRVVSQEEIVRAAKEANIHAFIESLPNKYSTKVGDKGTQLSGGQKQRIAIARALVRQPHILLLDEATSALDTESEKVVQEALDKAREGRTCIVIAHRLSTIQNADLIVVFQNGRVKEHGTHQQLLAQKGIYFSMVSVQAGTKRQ
pIC50: −log10 of the molar value.
The compounds listed here are annotated with their pIC50.

smiles-record	target-or-test-system	pIC50
Cc1ccc(C(=O)N(CCCN)[C@@H](c2nc3cc(Cl)ccc3c(=O)n2Cc2ccccc2)C(C)C)cc1	ABCB1 (Homo sapiens, UniProt P08183)	5.30
COc1cc2c(cc1OC)CN(CCc1ccc(NC(=O)c3cc(OC)c(OC)cc3NC(=O)c3cnc4ccccc4c3)cc1)CC2	ABCB1 (Homo sapiens, UniProt P08183)	8.14
Cn1c(=O)n(-c2ccc(C(C)(C)C#N)cc2)c2c3cc(-c4cnc5ccccc5c4)ccc3ncc21	ABCB1 (Homo sapiens, UniProt P08183)	4.70

---

biological target: ABCB1 (Homo sapiens, UniProt P08183); test: in vitro

compound	inhibition at 10 µM
COc1cc(Nc2c(C#N)cnc3cc(OCCCN4CCN(C)CC4)c(OC)cc23)c(Cl)cc1Cl [Bosutinib (SKI-606), Bosutinib]	≥ 50%
Cn1c(=O)n(-c2ccc(C(C)(C)C#N)cc2)c2c3cc(-c4cnc5ccccc5c4)ccc3ncc21	≥ 50%
CO[C@H]1C[C@@H]2CC[C@@H](C)[C@@](O)(O2)C(=O)C(=O)N2CCCC[C@H]2C(=O)O[C@H]([C@H](C)C[C@@H]2CC[C@@H](OC(=O)C(C)(CO)CO)[C@H](OC)C2)CC(=O)[C@H](C)/C=C(\C)[C@@H](O)[C@@H](OC)C(=O)[C@H](C)C[C@H](C)/C=C/C=C/C=C/1C	≥ 50%
CO[C@H]1C[C@@H]2CC[C@@H](C)[C@@](O)(O2)C(=O)C(=O)N2CCCC[C@H]2C(=O)O[C@H]([C@H](C)C[C@@H]2CC[C@@H](O)[C@H](OC)C2)CC(=O)[C@H](C)/C=C(\C)[C@@H](O)[C@@H](OC)C(=O)[C@H](C)C[C@H](C)/C=C/C=C/C=C/1C [Rapamycin (Sirolimus), Rapamycin]	≥ 50%
Cc1ccc(NC(=O)c2ccc(CN3CCN(C)CC3)cc2)cc1Nc1nccc(-c2cccnc2)n1 [Imatinib (STI571), Imatinib]	≥ 50%
Cc1cn(-c2cc(NC(=O)c3ccc(C)c(Nc4nccc(-c5cccnc5)n4)c3)cc(C(F)(F)F)c2)cn1	≥ 50%

---

molecular target: ABCB1 (Homo sapiens, UniProt P08183); experiment: in vitro
Structures can show the parent of a compound that is named as a salt.
The compounds listed here are annotated with their inhibition at 10 µM.

compound	inhibition at 10 µM
C=CC(=O)Nc1cccc(Oc2nc(Nc3ccc(N4CCN(C)CC4)cc3OC)ncc2Cl)c1	≥ 50%
C=CC(=O)Nc1cc2c(Nc3ccc(F)c(Cl)c3)ncnc2cc1OCCCN1CCOCC1	≥ 50%
COc1cc2c(Oc3ccc4[nH]c(C)cc4c3F)ncnc2cc1OCCCN1CCCC1	≥ 50%
Cc1cnc(NC(=O)Nc2cc(Br)c(C)cc2OC[C@@H]2CNCCO2)cn1	≥ 50%
COc1cc2ncnc(Nc3ccc(F)c(Cl)c3)c2cc1OCCCN1CCOCC1	≥ 50%
CO[C@H]1C[C@@H]2CC[C@@H](C)[C@@](O)(O2)C(=O)C(=O)N2CCCC[C@H]2C(=O)O[C@H]([C@H](C)C[C@@H]2CC[C@@H](OP(C)(C)=O)[C@H](OC)C2)CC(=O)[C@H](C)/C=C(\C)[C@@H](O)[C@@H](OC)C(=O)[C@H](C)C[C@H](C)/C=C/C=C/C=C/1C	≥ 50%
O=C(Nc1cccc(Cl)c1)Nc1ncc(CCNc2ncnc3ccsc23)s1 [SNS-314 Mesylate]	≥ 50%
